condition.label: buffer; pH 7.4; 200.0 µM
Answer Criterion not met if solubility kinetic is under 2 µg/mL, and Criterion met if it is 2 µg/mL or more.

{"compound": "COCCCNC(=S)Nc1ccc(N2CCCCC2)cc1", "category": "Criterion met"}
{"compound": "OC(CN1CCC(Cc2ccccc2)CC1)C(F)(F)F (configuration not stated)", "category": "Criterion met"}
{"compound": "O=[N+]([O-])c1ccc(CN2CCN(c3ncccn3)CC2)cc1", "category": "Criterion met"}
{"compound": "O=c1c([N+](=O)[O-])cccn1Cc1cccc(Cl)c1", "category": "Criterion met"}

q: Given the entry COc1ccc(C2=NOC(C(=O)NCc3cccnc3)C2)cc1 (configuration not stated) , answer whether its solubility kinetic meets or surpasses 2 µg/mL.
a: Criterion met

q: Given the entry `CC(=O)Nc1ccc(NS(=O)(=O)c2cc([N+](=O)[O-])ccc2C)cc1` , answer whether its solubility kinetic meets or surpasses 2 µg/mL.
a: Criterion met

q: Given the entry `O=C(Nc1ccc(Oc2cccc(C(F)(F)F)c2)nc1)c1ccco1` , answer whether its solubility kinetic meets or surpasses 2 µg/mL.
a: Criterion not met

q: Given the entry CC1CCCCC1NC(=S)Nc1ccc(Cl)cc1Cl (configuration not stated) , answer whether its solubility kinetic meets or surpasses 2 µg/mL.
a: Criterion not met

q: Given the entry `CCOc1ccccc1C(=O)N[C@H](C(=O)OCc1csc(CC(=O)Nc2ccc(C)cc2)n1)C(C)C` , answer whether its solubility kinetic meets or surpasses 2 µg/mL.
a: Criterion met

q: Given the entry `CC(=O)Nc1sc(C)c(C)c1C(=O)OCCOc1ccccc1` , answer whether its solubility kinetic meets or surpasses 2 µg/mL.
a: Criterion not met

q: Given the entry `Cc1ccc(S(=O)(=O)/C(=C\N(C)C)c2cnc(Cl)s2)cc1` , answer whether its solubility kinetic meets or surpasses 2 µg/mL.
a: Criterion met

q: Given the entry `CCC(=O)OCCNc1nc(-c2ccccc2)nc2ccccc12.Cl` , answer whether its solubility kinetic meets or surpasses 2 µg/mL.
a: Criterion met

###

condition.label: buffer; pH 7.4; 200.0 µM
measure: solubility kinetic (mg/mL)
Quick reminder: number only, in mg/mL, skip the unit.

{"compound": "Nc1nc(-c2cc3ccccc3o2)cs1", "solubility kinetic [mg/mL]": 0.0033}
{"compound": "CCN(CC)CC(=O)Nc1sc(C)cc1C(=O)c1ccc(C)cc1", "solubility kinetic [mg/mL]": 0.0004}
{"compound": "Cc1cccc(NC(=O)/C(C#N)=C/c2ccc[nH]2)c1C", "solubility kinetic [mg/mL]": 0.0021}

q: Answer with the recorded solubility kinetic for the compound listed here: `O=C(Nc1ccccc1)Nc1ccccc1Br`
a: 0.0021

q: Answer with the recorded solubility kinetic for the compound listed here: O=C(Nc1cc(Cl)ccc1Cl)C1CC(=O)N(c2ccccc2)C1 (centres undefined)
a: 0.0017

q: Answer with the recorded solubility kinetic for the compound listed here: `O=Cc1c(NCc2ccc(Cl)cc2)c2ccccc2[nH]c1=O`
a: 0.0028

q: Answer with the recorded solubility kinetic for the compound listed here: `COC(=O)CN1C(=O)N/C(=C/c2ccc(OC)cc2)C1=O`
a: 0.0174

q: Answer with the recorded solubility kinetic for the compound listed here: `Cc1ccc(OC(=O)c2ccncc2)c(C)c1`
a: 0.0239

q: Answer with the recorded solubility kinetic for the compound listed here: `Cc1ccc2cc(NC(=O)c3ccccc3C)ccc2n1`
a: 0.0374

###

condition.label: buffer; pH 7.4; 200.0 µM
This section presents compounds with their documented solubility kinetic values.

{"compound": "CC(=O)c1ccc(NC(=O)COC(=O)/C=C/c2cccs2)cc1", "measure": "solubility kinetic", "recorded.measurement": "7.3 µg/mL"}
{"compound": "COc1ccccc1C(=O)CC(=O)C(=O)Nc1cccc([N+](=O)[O-])c1C", "measure": "solubility kinetic", "recorded.measurement": "15.5 µg/mL"}
{"compound": "CC(C)c1ccccc1OCCNC(=O)c1cncc(Br)c1", "measure": "solubility kinetic", "recorded.measurement": "36.4 µg/mL"}

q: Answer with the recorded solubility kinetic for the compound listed here: `O=C(CN1c2cccc3cccc(c23)S1(=O)=O)Nc1ccccc1Br`
a: 4.4 µg/mL

q: Answer with the recorded solubility kinetic for the compound listed here: CCC(C)NS(=O)(=O)c1cc2c3c(c1)CCN3C(=O)CC2 (stereo unspecified)
a: > 46.3 µg/mL

q: Answer with the recorded solubility kinetic for the compound listed here: COc1ccc(C(=O)NCC(O)CN2CCOCC2)cc1[N+](=O)[O-] (stereo unspecified)
a: 38.9 µg/mL

q: Answer with the recorded solubility kinetic for the compound listed here: `COc1cccc(-c2cc(C(=O)N3CCOCC3)no2)c1`
a: > 43.2 µg/mL

q: Answer with the recorded solubility kinetic for the compound listed here: `Cc1ccc(C(=O)Nc2cc(C)nn2CCC#N)cc1`
a: > 40.2 µg/mL

q: Answer with the recorded solubility kinetic for the compound listed here: `COc1ccccc1NC(=S)NCc1ccc(F)cc1`
a: 34 µg/mL

q: Answer with the recorded solubility kinetic for the compound listed here: `CCOC(=O)CC(=O)c1[nH]c(C)c(C(=O)OCC)c1C`
a: 14.3 µg/mL

q: Answer with the recorded solubility kinetic for the compound listed here: `C=CCNC(=O)CN(Cc1ccccc1)S(=O)(=O)c1ccccc1`
a: > 51.7 µg/mL

###

condition.label: buffer; pH 7.4; 200.0 µM
Answer 0 (no) if solubility kinetic is under 20 µg/mL, and 1 (yes) if it is 20 µg/mL or more.

Solved entries (count: 3):
{"molecule": "CCOc1ccccc1OCCC(=O)OCC(=O)c1ccc[nH]1", "category": "1 (yes)"}
{"molecule": "COc1ccc(NC(=O)COC(=O)CN2C(=O)C3CC=CCC3C2=O)c([N+](=O)[O-])c1 (configuration not stated)", "category": "1 (yes)"}
{"molecule": "O=C1Cc2ccccc2C(c2c(Cl)cccc2Cl)N1 (configuration not stated)", "category": "0 (no)"}

q: Given the entry `O=C(Nc1ccccc1)NC1(C(=O)N2CCC(O)CC2)CCCCC1` , answer whether its solubility kinetic meets or surpasses 20 µg/mL.
a: 1 (yes)

q: Given the entry `CCCCC(=O)Nc1cc([N+](=O)[O-])ccc1F` , answer whether its solubility kinetic meets or surpasses 20 µg/mL.
a: 1 (yes)

q: Given the entry CC(CO)NCC12CC3CC(CC(C3)C1)C2.Cl (configuration not stated) , answer whether its solubility kinetic meets or surpasses 20 µg/mL.
a: 1 (yes)

q: Given the entry `COc1ccc(OC)c(NC(=O)COC(=O)CCNc2ccccc2OC)c1` , answer whether its solubility kinetic meets or surpasses 20 µg/mL.
a: 1 (yes)

q: Given the entry `O=C(NCCNC1CCCCC1)c1ccco1` , answer whether its solubility kinetic meets or surpasses 20 µg/mL.
a: 1 (yes)

q: Given the entry `NS(=O)(=O)c1ccc(NC(=O)CN2CCCc3ccccc32)cc1` , answer whether its solubility kinetic meets or surpasses 20 µg/mL.
a: 0 (no)

q: Given the entry `COC(=O)/C(C#N)=C/c1c[nH]c2ccccc12` , answer whether its solubility kinetic meets or surpasses 20 µg/mL.
a: 0 (no)

q: Given the entry `COc1ccc(/C=C/C(=O)OCC(=O)NC(=O)NC(C)(C)C)cc1` , answer whether its solubility kinetic meets or surpasses 20 µg/mL.
a: 0 (no)

q: Given the entry `O=C(Nc1cccc(F)c1)Nc1c[nH]c(=O)[nH]c1=O` , answer whether its solubility kinetic meets or surpasses 20 µg/mL.
a: 0 (no)

###

condition.label: buffer; pH 7.4; 200.0 µM
measure: solubility kinetic (µg/mL)
Quick reminder: number only, in µg/mL, skip the unit.

{"compound": "CC(C)(C)c1ccc(/C=C(\\C#N)C(=O)NC2CC2)cc1", "recorded.measurement": 3.7}
{"compound": "O=C(Nc1cccnc1)c1ccc(Cl)c(Cl)c1", "recorded.measurement": 40}
{"compound": "C=CCNc1nc(Cl)nc(NCc2ccco2)n1", "recorded.measurement": 1.9}

q: Answer with the recorded solubility kinetic for the compound listed here: `CCOC(=O)c1csc(COc2ccc(OC)cc2)n1`
a: 11.3

q: Answer with the recorded solubility kinetic for the compound listed here: `Cc1cc(=O)c2cc(Br)ccc2n1CC(=O)NCc1ccccc1`
a: 1.3

q: Answer with the recorded solubility kinetic for the compound listed here: `Cc1cnc(NC(=O)COc2ccc3c(c2)CCC3)s1`
a: 1.2

q: Answer with the recorded solubility kinetic for the compound listed here: `Cc1csc(NC(=O)c2ccc(COc3ccccc3)o2)n1`
a: 3.3

q: Answer with the recorded solubility kinetic for the compound listed here: `CCCCOc1ccc(N=Cc2ccc[nH]2)cc1`
a: 34.9

q: Answer with the recorded solubility kinetic for the compound listed here: COc1cc2c(cc1OC)C(c1ccc(Br)cc1)NC(=O)C2 (stereo not given)
a: 45.2

###

condition.label: buffer; pH 7.4; 200.0 µM
Answer Condition not met if solubility kinetic is under 40 µg/mL, and Condition met if it is 40 µg/mL or more.

Solved entries (count: 4):
{"molecule": "COc1c(F)c(F)cc2c(=O)c(C(=O)O)cn(C3CC3)c12", "category": "Condition met"}
{"molecule": "CCCN1CCC(NC(=S)Nc2ccc(OC)c(OC)c2)CC1", "category": "Condition met"}
{"molecule": "CCOc1ccccc1C(=O)OCC(=O)NCc1ccc2c(c1)OCO2", "category": "Condition met"}
{"molecule": "Nc1nc(C23CC4CC(CC(Cl)(C4)C2)C3)cs1", "category": "Condition not met"}

Below: the item to evaluate.
q: Given the entry `COc1ccc(CNC(=O)c2cc(SC)ccc2Cl)cc1OC` , answer whether its solubility kinetic meets or surpasses 40 µg/mL.
a: Condition met

Data provenance: PubChem BioAssay AID1996
